Reported pIC50 against Macrophage colony-stimulating factor 1 receptor (Homo sapiens, UniProt P07333), gathered from multiple publications, appears below.
pIC50: −log10 of the molar value.

Past entries and their recorded results:
>  <compound>
COc1ncnc2[nH]cc(Cc3cnc(NCc4ccc(C(F)(F)F)nc4)nc3)c12

>  <value-kind>
pIC50

>  <endpoint-value>
≥ 5.00

$$$$
>  <compound>
COc1cc(Cc2c[nH]c3ncc(Br)cc23)cc(OC)c1

>  <value-kind>
pIC50

>  <endpoint-value>
≥ 5.00

$$$$

Please give the measured pIC50 for this compound: "COc1cnc2[nH]cc(C(=O)c3c(Cl)ccc(OCC(F)(F)F)c3Cl)c2c1"
≥ 5.00

Another compound to look at: "Cc1nc(-c2cnc3n(c2=O)CC[C@@H]2CCCN32)ccc1Oc1ccnc(-c2cnn(C)c2)c1"
6.97
